assay: Metabolic stability in human liver microsomes assessed as disappearance of the compound after 20 mins; assay type: ADME, Microsome; conditions: read-out: Drug metabolism
metabolised at 20 min values, listed per item
Give just the number in %; leave the unit off.

# example entries with known answers
{"columns": ["Sample smiles", "Attribute measured", "Value observed"],
 "data": [
  ["COC(=O)N[C@H](C(=O)N[C@@H](Cc1ccccc1)C[C@H](O)[C@H](Cc1ccc(-c2cncc(F)c2)cc1)NC(=O)[C@@H](NC(=O)OC)C(C)(C)C)C(C)(C)C", "metabolised at 20 min", 40],
  ["COC(=O)N[C@H](C(=O)N[C@@H](Cc1ccccc1)C[C@H](O)[C@H](Cc1ccc(-c2cccnc2)cc1)NC(=O)[C@@H](NC(=O)OC)C(C)(C)C)C(C)(C)C", "metabolised at 20 min", 40]
]}

Any idea what its metabolised at 20 min is? The molecule is `COC(=O)N[C@H](C(=O)N[C@@H](Cc1ccccc1)C[C@H](O)[C@H](Cc1ccc(-c2ccccn2)cc1)NC(=O)[C@@H](NC(=O)OC)C(C)(C)C)C(C)(C)C`
40

----------
system: Human immunodeficiency virus 1; experiment: Antiviral activity against HIV1 A17 harboring protease L10F, V32I, M46I, I47V, Q58E and I84V mutant infected in human MT4 cells assessed as inhibition of virus-induced cell death after 5 days by MTT assay relative to wild type HIV1 pNL4-3; type: functional
Class Fulfilled: fold change (FC) at least 2. Class Not fulfilled: fold change (FC) below 2.

Some solved entries appear below for comparison.
{"columns": ["Compound", "Target under test", "Group"],
 "data": [
  ["COC(=O)N[C@H](C(=O)N[C@@H](Cc1ccccc1)C[C@H](O)[C@H](Cc1ccc(-c2ccnc(F)c2)cc1)NC(=O)[C@@H](NC(=O)OC)C(C)(C)C)C(C)(C)C", "Human immunodeficiency virus 1", "Fulfilled"],
  ["Cc1cccc(C)c1OCC(=O)N[C@@H](Cc1ccccc1)[C@@H](O)C[C@H](Cc1ccccc1)NC(=O)[C@H](C(C)C)N1CCCNC1=O [LOPINAVIR]", "Human immunodeficiency virus 1", "Fulfilled"],
  ["COC(=O)N[C@H](C(=O)N[C@@H](Cc1ccccc1)C[C@H](O)[C@H](Cc1ccc(-c2cccc(N)c2)cc1)NC(=O)[C@@H](NC(=O)OC)C(C)(C)C)C(C)(C)C", "Human immunodeficiency virus 1", "Fulfilled"]
]}

Is the recorded value of fold change (FC) equal to or greater than 2 for this compound? `COC(=O)N[C@H](C(=O)N[C@@H](Cc1ccccc1)C[C@H](O)[C@H](Cc1ccc(-c2cccc(CO)c2)cc1)NC(=O)[C@@H](NC(=O)OC)C(C)(C)C)C(C)(C)C`
Not fulfilled

Is the recorded value of fold change (FC) equal to or greater than 2 for this compound? `CNC(=O)c1ccc(-c2ccc(C[C@H](NC(=O)[C@@H](NC(=O)OC)C(C)(C)C)[C@@H](O)C[C@H](Cc3ccccc3)NC(=O)[C@@H](NC(=O)OC)C(C)(C)C)cc2)cc1`
Not fulfilled

----------
bioavailability values, listed per item
experiment: Oral bioavailability in rat at 5 mg/kg; assay type: ADME, organism-based; settings: in vivo
Give just the number in %; leave the unit off.

{"columns": ["Sample smiles", "Reading unit", "Value observed"],
 "data": [
  ["COC(=O)N[C@H](C(=O)N[C@@H](Cc1ccccc1)C[C@H](O)[C@H](Cc1ccc(-c2ccc(OC)cc2)cc1)NC(=O)[C@@H](NC(=O)OC)C(C)(C)C)C(C)(C)C", "%", 0],
  ["COC(=O)N[C@H](C(=O)N[C@@H](Cc1ccccc1)C[C@H](O)[C@H](Cc1ccc(-c2ccc(C(C)=O)cc2)cc1)NC(=O)[C@@H](NC(=O)OC)C(C)(C)C)C(C)(C)C", "%", 0]
]}

Shift focus to the following entry.
Any idea what its bioavailability is? The compound is `COC(=O)N[C@H](C(=O)N[C@@H](Cc1ccccc1)C[C@H](O)[C@H](Cc1ccc(-c2cccnc2)cc1)NC(=O)[C@@H](NC(=O)OC)C(C)(C)C)C(C)(C)C`
5

Origin of the recorded values: ChEMBL document CHEMBL1833957
